# TEST SUMMARY: Spectroscopic measurements (absorption, emission, quantum yield, extinction coefficient)
# Format: physicochemical
# CONDITION SUMMARY: quantum yield, BDNCA library

[
  {
    "SMILES RECORD": "CC(=O)Oc1ccc(/C=C/c2cc(C)c3n2[B-](F)(F)[N+]2=CC=CC2=C3c2ccc(NC(=O)CCl)cc2)cc1",
    "Qunt. Yield": 0.13
  },
  {
    "SMILES RECORD": "CC1=CC(/C=C/c2cc(C)c(C)cc2C)=[N+]2C1=C(c1ccc(NC(=O)CCl)cc1)c1cccn1[B-]2(F)F",
    "Qunt. Yield": 0.06
  },
  {
    "SMILES RECORD": "CC1=CC(/C=C/c2cccc(OC(F)(F)C(F)F)c2)=[N+]2C1=C(c1ccc(NC(=O)CCl)cc1)c1cccn1[B-]2(F)F",
    "Qunt. Yield": "weak"
  },
  {
    "SMILES RECORD": "CC1=CC(/C=C/c2ccccc2OC(F)(F)F)=[N+]2C1=C(c1ccc(NC(=O)CCl)cc1)c1cccn1[B-]2(F)F",
    "Qunt. Yield": 0.07
  },
  {
    "SMILES RECORD": "Cc1cc(/C=C/c2ccc(OCc3ccc(F)cc3)cc2)n2c1C(c1ccc(NC(=O)CCl)cc1)=C1C=CC=[N+]1[B-]2(F)F",
    "Qunt. Yield": 0.16
  }
]
